Molecular target: OR2W1 (Homo sapiens, UniProt Q9Y3N9)
Construct: Lucy tag (N); FLAG (N); Rho tag (N); expressed in transfected cells; host or cells: Flp-In T-REx-293 cells stably expressing RTP1S, Gαolf and Ric8-b
Sequence (Q9Y3N9 whole entry): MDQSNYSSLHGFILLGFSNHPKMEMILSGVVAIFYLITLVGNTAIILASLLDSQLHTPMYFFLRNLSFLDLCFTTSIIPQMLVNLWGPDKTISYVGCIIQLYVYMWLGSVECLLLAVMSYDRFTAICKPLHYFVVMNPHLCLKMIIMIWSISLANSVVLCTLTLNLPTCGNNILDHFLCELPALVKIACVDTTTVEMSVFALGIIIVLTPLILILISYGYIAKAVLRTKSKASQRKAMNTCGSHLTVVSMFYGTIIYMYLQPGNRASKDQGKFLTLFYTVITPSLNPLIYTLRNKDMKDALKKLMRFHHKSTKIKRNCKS
Assay: hOR assay (GloSensor cAMP luciferase), dose-response
Assay type: cell-based
Conditions: OR2W1/pHEK (with TAR-Tat system); read-out: EC50 of n-hexanal concentration-response relationship

Compound	Uom	EC50
CCCCCC=O [n-hexanal]	µM	60

* * *

Target: OR5P3 (Homo sapiens)
Construct: Lucy tag (N); FLAG (N); Rho tag (N); expressed in transfected cells; host or cells: Flp-In T-REx-293 cells stably expressing RTP1S, Gαolf and Ric8-b
Sequence (Q8WZ94 1-311): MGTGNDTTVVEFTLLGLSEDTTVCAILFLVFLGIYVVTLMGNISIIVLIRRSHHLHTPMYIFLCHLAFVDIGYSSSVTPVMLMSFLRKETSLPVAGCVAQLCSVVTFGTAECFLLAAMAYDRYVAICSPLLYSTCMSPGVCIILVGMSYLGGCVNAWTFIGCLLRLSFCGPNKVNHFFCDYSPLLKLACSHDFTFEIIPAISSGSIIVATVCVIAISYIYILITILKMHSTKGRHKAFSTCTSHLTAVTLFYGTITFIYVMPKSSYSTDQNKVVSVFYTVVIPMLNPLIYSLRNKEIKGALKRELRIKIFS
Assay: hOR assay (GloSensor cAMP luciferase), dose-response
Type: cell-based
Conditions: OR5P3/pBApo (without TAR-Tat system); read-out: EC50 of n-hexanal concentration-response relationship
pEC50: −log10 of the molar value.
Measured quantity: pEC50

1) CCCCCC=O 3.72
